Hello, the source for this data is paper PMC5540273, in case you need it.

Target of assay: GRK2 (Homo sapiens, UniProt P25098)
Sequence (P25098 1-689): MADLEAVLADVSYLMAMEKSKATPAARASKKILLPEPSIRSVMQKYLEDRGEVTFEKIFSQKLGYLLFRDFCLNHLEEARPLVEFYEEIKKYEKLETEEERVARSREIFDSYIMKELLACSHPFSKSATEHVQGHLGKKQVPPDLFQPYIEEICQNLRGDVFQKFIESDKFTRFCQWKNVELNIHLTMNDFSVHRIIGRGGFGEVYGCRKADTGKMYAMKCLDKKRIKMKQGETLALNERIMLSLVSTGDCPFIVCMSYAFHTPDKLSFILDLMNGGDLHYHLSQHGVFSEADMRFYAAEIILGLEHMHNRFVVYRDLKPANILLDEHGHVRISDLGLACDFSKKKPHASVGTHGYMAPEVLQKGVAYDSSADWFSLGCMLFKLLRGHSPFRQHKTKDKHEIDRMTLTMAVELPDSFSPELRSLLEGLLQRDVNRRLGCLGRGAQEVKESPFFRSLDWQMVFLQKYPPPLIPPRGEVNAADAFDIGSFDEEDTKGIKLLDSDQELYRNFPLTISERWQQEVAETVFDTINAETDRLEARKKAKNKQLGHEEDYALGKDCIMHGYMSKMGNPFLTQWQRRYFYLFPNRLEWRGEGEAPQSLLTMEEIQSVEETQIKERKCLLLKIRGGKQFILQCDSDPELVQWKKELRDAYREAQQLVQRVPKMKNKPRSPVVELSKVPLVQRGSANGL
Assay remarks: KINOMEscan competition binding
Conditions: read-out: %Inh GRK2
Value kind: inhibition at 1 µM

inhibition at 1 µM for GRK2 (Homo sapiens, UniProt P25098) with input COc1cccc(OC)c1C(=O)Nc1cccc(-c2nn3ccccc3c2-c2ccnc(Nc3cccc(F)c3)n2)c1 [UNC10225310A] equals 0%

inhibition at 1 µM for GRK2 (Homo sapiens, UniProt P25098) with input CS(=O)(=O)Cc1ccc(Nc2nccc(-c3c(-c4cccc(NC(=O)C5CCCCC5)c4)nn4ncccc34)n2)cc1 [UNC10225159A] equals 44%

inhibition at 1 µM for GRK2 (Homo sapiens, UniProt P25098) with input O=c1cc(N2CCOCC2)nc2n(Cc3cccc(Cl)c3Cl)c(C3CC3)nn12 [UNC10225469A] equals 0%

inhibition at 1 µM for GRK2 (Homo sapiens, UniProt P25098) with input Cc1ccc(NC(=O)Nc2cccc(C(F)(F)F)c2)cc1 [UNC10225187A] equals 0%

inhibition at 1 µM for GRK2 (Homo sapiens, UniProt P25098) with input Cn1cc(-c2cnc(N)c3c(-c4ccc5c(c4)CCN5C(=O)Cc4ccccc4)csc23)cn1 [UNC10225012A] equals 0%

---

Task for the reader: assign each of the following molecules its reported inhibition at 1 µM.
Target of assay: HCK (Homo sapiens, UniProt P08631)
Sequence (P08631 whole entry): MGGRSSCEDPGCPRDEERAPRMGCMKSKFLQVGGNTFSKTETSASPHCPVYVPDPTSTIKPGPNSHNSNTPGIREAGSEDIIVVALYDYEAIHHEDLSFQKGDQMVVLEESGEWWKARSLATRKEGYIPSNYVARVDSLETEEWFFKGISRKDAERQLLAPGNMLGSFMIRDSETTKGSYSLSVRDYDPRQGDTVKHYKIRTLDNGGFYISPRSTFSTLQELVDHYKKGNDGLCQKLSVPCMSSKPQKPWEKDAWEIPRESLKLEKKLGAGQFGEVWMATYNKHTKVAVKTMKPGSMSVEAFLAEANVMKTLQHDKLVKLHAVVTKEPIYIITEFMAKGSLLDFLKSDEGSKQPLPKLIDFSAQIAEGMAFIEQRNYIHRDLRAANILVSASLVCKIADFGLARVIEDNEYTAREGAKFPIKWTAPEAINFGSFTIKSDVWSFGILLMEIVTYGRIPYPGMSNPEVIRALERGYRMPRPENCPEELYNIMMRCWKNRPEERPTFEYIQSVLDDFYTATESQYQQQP
Assay remarks: KINOMEscan competition binding
Conditions: read-out: %Inh HCK
Kindly answer with a numeric value in %, unit omitted.

// O=c1cc(N2CCOCC2)nc2n(Cc3cccc(Cl)c3Cl)c(C3CC3)nn12 [UNC10225469A] : inhibition at 1 µM value = 0

// CS(=O)(=O)Cc1ccc(Nc2nccc(-c3c(-c4cccc(NC(=O)C5CCCCC5)c4)nn4ncccc34)n2)cc1 [UNC10225159A] : inhibition at 1 µM value = 1

// COc1cccc(OC)c1C(=O)Nc1cccc(-c2nn3ccccc3c2-c2ccnc(Nc3cccc(F)c3)n2)c1 [UNC10225310A] : inhibition at 1 µM value = 30

// Cc1ccc(NC(=O)Nc2cccc(C(F)(F)F)c2)cc1 [UNC10225187A] : inhibition at 1 µM value = 0

// Cn1cc(-c2cnc(N)c3c(-c4ccc5c(c4)CCN5C(=O)Cc4ccccc4)csc23)cn1 [UNC10225012A] : inhibition at 1 µM value = 86
